Tested on: murine red blood cells (mRBCs)
test parameters: mouse, 60 min, 62.5 μg/mL
Each entry below lists one item and its recorded Percentage of hemolysis (±SDEV) value.
Respond with the bare value in %.

Q) Give reported Percentage of hemolysis (±SDEV) value for Fc1cccc(N/N=C/c2ccc(-c3cccc(/C=N/Nc4cccc(F)c4)c3)cc2)c1 [Compound 12a]
A) 39.5

***
Q) Give reported Percentage of hemolysis (±SDEV) value for C/C(=N\Nc1ccc(F)cc1)c1ccc(-c2ccc(/C(C)=N/Nc3ccc(F)cc3)cc2)cc1 [Compound 17c]
A) 26.2

Q) Give reported Percentage of hemolysis (±SDEV) value for Fc1ccc(N/N=C/c2ccc(-c3ccc(/C=N/Nc4ccc(F)cc4)cc3)cc2)cc1 [Compound 17b]
A) 28.3

Q) Give reported Percentage of hemolysis (±SDEV) value for Fc1ccc(N/N=C/c2ccc(-c3cccc(/C=N/Nc4ccc(F)cc4)c3)cc2)cc1 [Compound 17a]
A) 26.1

----------
Tested on: murine red blood cells (mRBCs)
test parameters: mouse, 60 min, 15.6 μg/mL
Each entry below lists one item and its recorded Percentage of hemolysis (±SDEV) value.
Respond with the bare value in %.

Q) Give reported Percentage of hemolysis (±SDEV) value for Fc1cccc(N/N=C/c2ccc(-c3ccc(/C=N/Nc4cccc(F)c4)cc3)cc2)c1 [Compound 12b]
A) 7.7

***
Q) Give reported Percentage of hemolysis (±SDEV) value for Fc1ccc(N/N=C/c2ccc(-c3cccc(/C=N/Nc4ccc(F)cc4F)c3)cc2)c(F)c1 [Compound 20a]
A) 14.6

Q) Give reported Percentage of hemolysis (±SDEV) value for COc1ccc(N/N=C/c2ccc(-c3ccc(/C=N/Nc4ccc(OC)cc4)cc3)cc2)cc1 [Compound 15b]
A) 6.7

Q) Give reported Percentage of hemolysis (±SDEV) value for C[C@@H](c1ncncc1F)[C@](O)(Cn1cncn1)c1ccc(F)cc1F [VOR, voriconazole, reference compound]
A) 2.8

Q) Give reported Percentage of hemolysis (±SDEV) value for Fc1ccc(N/N=C/c2ccc(-c3ccc(/C=N/Nc4ccc(F)cc4)cc3)cc2)cc1 [Compound 17b]
A) 9.0

----------
Tested on: murine red blood cells (mRBCs)
test parameters: mouse, 60 min, 31.3 μg/mL
Each entry below lists one item and its recorded Percentage of hemolysis (±SDEV) value.
Respond with the bare value in %.

Q) Give reported Percentage of hemolysis (±SDEV) value for Fc1ccc(N/N=C/c2ccc(-c3cccc(/C=N/Nc4ccc(F)cc4)c3)cc2)cc1 [Compound 17a]
A) 14.4

***
Q) Give reported Percentage of hemolysis (±SDEV) value for C/C(=N\Nc1ccc(F)cc1)c1ccc(-c2ccc(/C(C)=N/Nc3ccc(F)cc3)cc2)cc1 [Compound 17c]
A) 9.5

Q) Give reported Percentage of hemolysis (±SDEV) value for COc1ccc(N/N=C/c2ccc(-c3ccc(/C=N/Nc4ccc(OC)cc4)cc3)cc2)cc1 [Compound 15b]
A) 12.6

Q) Give reported Percentage of hemolysis (±SDEV) value for Fc1ccc(N/N=C/c2ccc(-c3cccc(/C=N/Nc4ccc(F)cc4F)c3)cc2)c(F)c1 [Compound 20a]
A) 14.6

----------
System: C. albicans ATCC MYA-1003(R) (strain G)
method: MIC determination, in vitro antifungal assay (CLSI M27-A3)
Type: cell-based, Candida albicans
test parameters: Candida albicans, 48 h, MIC-0, 48 h at 35° C., read-out: MIC
Each entry below lists one item and its recorded MIC value.

Q) Give reported MIC value for CC[C@H](C)C[C@H](C)CCCCCCCCC(=O)N[C@H]1C[C@@H](O)[C@@H](NCCN)NC(=O)[C@@H]2[C@@H](O)CCN2C(=O)[C@H]([C@H](O)CCN)NC(=O)[C@H]([C@H](O)[C@@H](O)c2ccc(O)cc2)NC(=O)[C@@H]2C[C@@H](O)CN2C(=O)[C@H]([C@@H](C)O)NC1=O [CAS, caspofungin, reference compound]
A) 0.48 µg/mL

Q) Give reported MIC value for C(=N\Nc1ccccc1)/c1ccc(-c2cccc(/C=N/Nc3ccccc3)c2)cc1 [Compound 7a]
A) 1.95 to 3.9 µg/mL

Q) Give reported MIC value for Brc1ccc(N/N=C/c2ccc(-c3ccc(/C=N/Nc4ccc(Br)cc4)cc3)cc2)cc1 [Compound 19b]
A) > 31.3 µg/mL

Q) Give reported MIC value for N=C(N)N/N=C/c1ccc(-c2cccc(/C=N/NC(=N)N)c2)cc1 [Compound 24a]
A) > 31.3 µg/mL

***
Q) Give reported MIC value for Fc1cc(F)cc(N/N=C/c2ccc(-c3ccc(/C=N/Nc4cc(F)cc(F)c4)cc3)cc2)c1 [Compound 22b]
A) > 31.3 µg/mL

Q) Give reported MIC value for Fc1ccc(N/N=C/c2ccc(-c3ccc(/C=N/Nc4ccc(F)cc4F)cc3)cc2)c(F)c1 [Compound 20b]
A) > 31.3 µg/mL

----------
Tested on: murine red blood cells (mRBCs)
test parameters: mouse, 60 min, 0.975 μg/mL
Each entry below lists one item and its recorded Percentage of hemolysis (±SDEV) value.
Respond with the bare value in %.

Consider the following illustrative entries.
Q) Look up and report measured Percentage of hemolysis (±SDEV) (murine red blood cells (mRBCs)) for the following molecule: Fc1ccc(N/N=C/c2ccc(-c3cccc(/C=N/Nc4ccc(F)cc4)c3)cc2)cc1 [Compound 17a]
A) 0

Q) Look up and report measured Percentage of hemolysis (±SDEV) (murine red blood cells (mRBCs)) for the following molecule: Fc1ccc(N/N=C/c2ccc(-c3cccc(/C=N/Nc4ccc(F)cc4F)c3)cc2)c(F)c1 [Compound 20a]
A) 0

Q) Look up and report measured Percentage of hemolysis (±SDEV) (murine red blood cells (mRBCs)) for the following molecule: COc1ccc(N/N=C/c2ccc(-c3cccc(/C=N/Nc4ccc(OC)cc4)c3)cc2)cc1 [Compound 15a]
A) 2.6

Q) Look up and report measured Percentage of hemolysis (±SDEV) (murine red blood cells (mRBCs)) for the following molecule: C/C(=N\Nc1ccc(F)cc1)c1ccc(-c2ccc(/C(C)=N/Nc3ccc(F)cc3)cc2)cc1 [Compound 17c]
A) 1.4

Q) Look up and report measured Percentage of hemolysis (±SDEV) (murine red blood cells (mRBCs)) for the following molecule: C(=N\Nc1ccccc1)/c1ccc(-c2ccc(/C=N/Nc3ccccc3)cc2)cc1
A) 0.1

***
Q) Look up and report measured Percentage of hemolysis (±SDEV) (murine red blood cells (mRBCs)) for the following molecule: Fc1cccc(N/N=C/c2ccc(-c3ccc(/C=N/Nc4cccc(F)c4)cc3)cc2)c1 [Compound 12b]
A) 0.8

Q) Look up and report measured Percentage of hemolysis (±SDEV) (murine red blood cells (mRBCs)) for the following molecule: COc1ccc(N/N=C/c2ccc(-c3ccc(/C=N/Nc4ccc(OC)cc4)cc3)cc2)cc1 [Compound 15b]
A) 1.6

Q) Look up and report measured Percentage of hemolysis (±SDEV) (murine red blood cells (mRBCs)) for the following molecule: N=C(N)N/N=C/c1ccc(-c2cccc(/C=N/NC(=N)N)c2)cc1 [Compound 24a]
A) 0

----------
Test system: C. albicans ATCC MYA-1003(R) (strain G)
method: MIC determination, in vitro antifungal assay (CLSI M27-A3)
Assay type: cell-based, Candida albicans
test parameters: Candida albicans, 48 h, MIC-0, 48 h at 35° C., read-out: MIC
metric: MIC

Consider the following illustrative entries.
Q) Give reported MIC value for Fc1ccc(F)c(N/N=C/c2ccc(-c3cccc(/C=N/Nc4cc(F)ccc4F)c3)cc2)c1 [Compound 21a]
A) > 31.3 µg/mL

Q) Give reported MIC value for Fc1ccc(N/N=C/c2ccc(-c3cccc(/C=N/Nc4ccc(F)cc4F)c3)cc2)c(F)c1 [Compound 20a]
A) 7.8 µg/mL

--- query ---
Q) Give reported MIC value for Fc1cccc(N/N=C/c2ccc(-c3ccc(/C=N/Nc4cccc(F)c4)cc3)cc2)c1 [Compound 12b]
A) > 31.3 µg/mL

----------
Test system: C. albicans ATCC MYA-2310(S) (strain E)
method: MIC determination, in vitro antifungal assay (CLSI M27-A3)
Format: cell-based, Candida albicans
test parameters: Candida albicans, 48 h, MIC-0, 48 h at 35° C., read-out: MIC
metric: MIC

Consider the following illustrative entries.
Q) Give reported MIC value for Fc1cccc(N/N=C/c2ccc(-c3ccc(/C=N/Nc4cccc(F)c4)cc3)cc2)c1 [Compound 12b]
A) > 31.3 µg/mL

Q) Give reported MIC value for C(=N\Nc1ccccc1)/c1ccc(-c2cccc(/C=N/Nc3ccccc3)c2)cc1
A) 31.3 µg/mL

Q) Give reported MIC value for Brc1ccc(N/N=C/c2ccc(-c3ccc(/C=N/Nc4ccc(Br)cc4)cc3)cc2)cc1 [Compound 19b]
A) > 31.3 µg/mL

--- query ---
Q) Give reported MIC value for Fc1ccccc1N/N=C/c1ccc(-c2ccc(/C=N/Nc3ccccc3F)cc2)cc1 [Compound 10b]
A) > 31.3 µg/mL

----------
System: Aspergillus nidulans ATCC 38163 (strain L)
method: MIC determination against filamentous fungi (CLSI M38-A2)
Format: cell-based
test parameters: MIC-0, 48 h at 35° C.
Each entry below lists one item and its recorded MIC value.
Respond with the bare value in µg/mL.

Q) Give reported MIC value for Fc1cccc(N/N=C/c2ccc(-c3cccc(/C=N/Nc4cccc(F)c4)c3)cc2)c1 [Compound 12a]
A) 7.8

***
Q) Give reported MIC value for Fc1ccc(N/N=C/c2ccc(-c3cccc(/C=N/Nc4ccc(F)cc4)c3)cc2)cc1 [Compound 17a]
A) 3.9

Q) Give reported MIC value for C(=N\Nc1ccccc1)/c1ccc(-c2cccc(/C=N/Nc3ccccc3)c2)cc1 [Compound 7a]
A) 1.95

Q) Give reported MIC value for COc1ccc(N/N=C/c2ccc(-c3ccc(/C=N/Nc4ccc(OC)cc4)cc3)cc2)cc1 [Compound 15b]
A) 7.8

Q) Give reported MIC value for C(=N\Nc1ccccc1)/c1ccc(-c2ccc(/C=N/Nc3ccccc3)cc2)cc1 [Compound 7b]
A) 1.95

Q) Give reported MIC value for Fc1ccc(N/N=C/c2ccc(-c3ccc(/C=N/Nc4ccc(F)cc4)cc3)cc2)cc1 [Compound 17b]
A) 7.8
